- Test system: Photoreceptor-specific nuclear receptor (Homo sapiens)
- Test protocol: NCOR release from NR2E3 in cells – cell-based, luminescence, CHO-S, Gal4-NCOR/VP16-NR2E3, primary screen (AID 602229);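 also: 0% = DMSO with NR2E3 transfected cells and 100% = cells lacking NR2E3 construct; higher means lower luciferase signal from less NR2E3 corepressor binding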
- Assay conditions: CHO-S Gal4-NCOR/VP16-NR2E3 two-hybrid, luciferase; at 3.98 µM; active compounds read high
Out of some 360,000 compounds screened, about 1,300 (0.36%) were called active. Many of the other results were omitted from the sample, so actives are more common in it than they were.
Property name: inhibition of corepressor binding (%)
Just the number please, in %, no unit attached.

Tested system Photoreceptor-specific nuclear receptor (Homo sapiens); inhibition of corepressor binding recorded for `NC(=S)c1ccc(C(N)=S)o1` was -5.1

The molecule `CCOC(=O)N1CCN(C(=O)C2CCN(c3ncnc4c3sc3cccc(F)c34)CC2)CC1` on Photoreceptor-specific nuclear receptor (Homo sapiens): inhibition of corepressor binding was 78.5

Reported Photoreceptor-specific nuclear receptor (Homo sapiens) inhibition of corepressor binding for item COc1cccc(CNC(C)C(=O)Nc2ccc(S(=O)(=O)N3CCCC3)cc2)c1 (centres undefined) was 3.95

The molecule `Cc1ccc(NC(=O)c2sccc2C)cc1[N+](=O)[O-]` , tested on Photoreceptor-specific nuclear receptor (Homo sapiens), showed inhibition of corepressor binding of -86.2

Test item `OCCCNc1nccc(-c2cc(Nc3cccc(Cl)c3)ncn2)n1` ; Photoreceptor-specific nuclear receptor (Homo sapiens); reported inhibition of corepressor binding was 101

# lookup: `CCCN(CC(=O)Nc1ccc(OC)c(OC)c1)CC(=O)Nc1ccc(F)c(F)c1F` on Photoreceptor-specific nuclear receptor (Homo sapiens), inhibition of corepressor binding = -8.16

// molecule `Nc1nc(-c2sc3nc4c(cc3c2N)CCCC4)nc(N2CCOCC2)n1` , assay Photoreceptor-specific nuclear receptor (Homo sapiens), inhibition of corepressor binding value: -56.6

Photoreceptor-specific nuclear receptor (Homo sapiens) assay, molecule `O=C(NC(Nc1nc2ccc([N+](=O)[O-])cc2s1)(C(F)(F)F)C(F)(F)F)c1ccccc1` , recorded inhibition of corepressor binding = 102

Entry `CCOCCCNC(=O)C(=O)NCCCOCC` , tested on Photoreceptor-specific nuclear receptor (Homo sapiens), has a reported inhibition of corepressor binding of 8.99

inhibition of corepressor binding on Photoreceptor-specific nuclear receptor (Homo sapiens) for `CCCCCCCCn1c2c(c(=N)c3c1CCC3)CCCC2` is 92

Observed inhibition of corepressor binding, Photoreceptor-specific nuclear receptor (Homo sapiens), `COc1ccccc1OCCNC(=O)CCNC(=O)c1ccccc1Cl` : -15.5

Tested on Photoreceptor-specific nuclear receptor (Homo sapiens): `Fc1cccc(CSc2nnc3ccc(-c4ccncc4)nn23)c1` . Observed inhibition of corepressor binding: 6.42

Response field inhibition of corepressor binding (Photoreceptor-specific nuclear receptor (Homo sapiens)) for item `C=CCn1c(C23CC4CC(CC(C4)C2)C3)n[nH]c1=S` : -1.8

Entry `O[C@@H]1C[C@H](c2ccccc2)N(Cc2cccs2)C[C@H]1n1cc(C2CC2)nn1` ; assay system Photoreceptor-specific nuclear receptor (Homo sapiens); inhibition of corepressor binding recorded at 5.46

Record `CC(=O)N1CCN(C(=O)c2cccc(S(=O)(=O)Nc3ccc(C)cc3)c2)CC1` has Photoreceptor-specific nuclear receptor (Homo sapiens) inhibition of corepressor binding equal to -16.4

The value of inhibition of corepressor binding recorded for `O=C(CC(O)(C(F)(F)F)C(F)(F)F)Nc1ccc(Cl)c(Cl)c1` when tested on Photoreceptor-specific nuclear receptor (Homo sapiens) reads 107

Reading of inhibition of corepressor binding for `O=C(CN1CCN(S(=O)(=O)c2ccc(Br)cc2)CC1)Nc1ccccc1C(=O)c1ccccc1` with Photoreceptor-specific nuclear receptor (Homo sapiens): 3.01

Value (inhibition of corepressor binding, Photoreceptor-specific nuclear receptor (Homo sapiens)) for record `Cc1nc2c(OCc3ccc(Cl)cc3Cl)cccn2c1N(C)CC1CC1` = -9.82

Observed inhibition of corepressor binding on Photoreceptor-specific nuclear receptor (Homo sapiens), entry `O=C(NNS(=O)(=O)Cc1ccccc1)c1ccc([N+](=O)[O-])cc1` , equals 0.72

The molecule `C=CCNC(=O)c1ccccc1SCc1c(C)noc1C` , tested on Photoreceptor-specific nuclear receptor (Homo sapiens), showed inhibition of corepressor binding of -20.3

Entry `N#Cc1ccc(COC(=O)Cn2nnc(-c3ccccc3)n2)cc1` : inhibition of corepressor binding on Photoreceptor-specific nuclear receptor (Homo sapiens) = 19.6

Note to self: inhibition of corepressor binding of `COc1ccccc1Oc1ccc(S(=O)(=O)Nc2cccnc2)cc1` with Photoreceptor-specific nuclear receptor (Homo sapiens) was 96.3

Known value: Photoreceptor-specific nuclear receptor (Homo sapiens) inhibition of corepressor binding of the molecule CCOC(=O)C1=NNC2(c3ccc(Cl)cc3)C(=O)N(c3cc(C)cc(C)c3)C(=O)C12 (centres undefined) equals 3.14

Entry `N#CCCN(C(=O)Nc1ccc(Cl)c(Cl)c1)C1CCCCC1` under Photoreceptor-specific nuclear receptor (Homo sapiens) had inhibition of corepressor binding of -1.19

The molecule `Cc1nc2c(OCc3cccc(Cl)c3)cccn2c1N(C)CC1CC1` , tested on Photoreceptor-specific nuclear receptor (Homo sapiens), showed inhibition of corepressor binding of 79.4

Photoreceptor-specific nuclear receptor (Homo sapiens) assay, molecule `O=C(Nc1cc(-c2ccccc2)nn1-c1ccccc1F)c1ccc([N+](=O)[O-])cc1` , recorded inhibition of corepressor binding = 7.55

Per the reported Photoreceptor-specific nuclear receptor (Homo sapiens) data, `CC(C)n1c(-c2ccncc2)n[nH]c1=S` has inhibition of corepressor binding of -6.98

Per the reported Photoreceptor-specific nuclear receptor (Homo sapiens) data, CC1CC1C(=O)OCC(=O)c1c(N)n(C)c(=O)n(C)c1=O (centres undefined) has inhibition of corepressor binding of 4.9

# value of inhibition of corepressor binding, Photoreceptor-specific nuclear receptor (Homo sapiens), item CC1=C(C(=O)Nc2ccccc2)C(c2cccs2)C(C#N)=C(SCC#N)N1 (centres undefined) = -12.8

Entry `Cc1cc(C)c(C)c(S(=O)(=O)Nc2cccnc2)c1C` , tested on Photoreceptor-specific nuclear receptor (Homo sapiens), has a reported inhibition of corepressor binding of -21.1

Summary line: `CCCCN1C[C@H](c2ccc(Br)cc2)[C@@H](CC(=O)Nc2ccc(Br)cc2)C1=O` , Photoreceptor-specific nuclear receptor (Homo sapiens), reported inhibition of corepressor binding = -20.7

Test item O=C(C1CCCO1)N(Cc1ccccc1)c1ccccc1 (centres undefined) ; Photoreceptor-specific nuclear receptor (Homo sapiens); reported inhibition of corepressor binding was -3.43

inhibition of corepressor binding value, target or system Photoreceptor-specific nuclear receptor (Homo sapiens), for `Cc1nc2c(OCc3ccc(Cl)cc3)cccn2c1N(C)Cc1cccs1` : -14.4

Item: `O=C(CCc1nnc2ccc(NCCCN3CCCC3=O)nn12)NCc1ccccc1Cl` | System: Photoreceptor-specific nuclear receptor (Homo sapiens) | inhibition of corepressor binding: 8.39

Recorded inhibition of corepressor binding for `O=C(NCc1ccccc1)c1cccc(NC(=O)C2CCCCC2)c1` on Photoreceptor-specific nuclear receptor (Homo sapiens) was -12.6

Tested system Photoreceptor-specific nuclear receptor (Homo sapiens); inhibition of corepressor binding recorded for `Cc1nnc(SCC(=O)Nc2ncc3c(n2)CC(C)(C)CC3=O)s1` was -5.27

Let me check: `CS(=O)(=O)N1CCN=C1SCc1ccc(F)cc1` , system Photoreceptor-specific nuclear receptor (Homo sapiens), measured inhibition of corepressor binding is -6.15

// inhibition of corepressor binding (Photoreceptor-specific nuclear receptor (Homo sapiens)) for `CCOC(=O)N1CCN(C(=O)C2CCN(Cc3ccc(OC)cc3OC)CC2)CC1` = 9.52

With Photoreceptor-specific nuclear receptor (Homo sapiens) as the test system, O=C(c1ccco1)N1CCN(CC(=O)N(C2CCCCC2)C2CCS(=O)(=O)C2)CC1 (centres undefined) showed inhibition of corepressor binding of -15.5

I looked up `Cc1ccc(NC(=O)CN(C)CC(=O)Nc2cccc(F)c2)cc1[N+](=O)[O-]` and its inhibition of corepressor binding for Photoreceptor-specific nuclear receptor (Homo sapiens) was 84.2

Photoreceptor-specific nuclear receptor (Homo sapiens) assay, molecule O=C(CCc1nnc(CCCCc2ccccc2)o1)NC(c1cccnc1)C(F)(F)F (centres undefined) , recorded inhibition of corepressor binding = -10.3

Observed inhibition of corepressor binding, Photoreceptor-specific nuclear receptor (Homo sapiens), `CNS(=O)(=O)c1ccc2c(c1)[nH]c(=S)n2C` : 10

inhibition of corepressor binding of CCOC(=O)N1CCN(C(=O)C2CCCN(c3ncnc4c3sc3cccc(F)c34)C2)CC1 (centres undefined) , assay on Photoreceptor-specific nuclear receptor (Homo sapiens), is -2.23

Result for COc1cc(C2/C(=C(\O)c3ccc4c(c3)CC(C)O4)C(=O)C(=O)N2c2nnc(C)s2)cc(OC)c1OC (centres undefined) , tested on Photoreceptor-specific nuclear receptor (Homo sapiens), inhibition of corepressor binding: -19.5
